measured target: Sodium- and chloride-dependent GABA transporter 1 (Mus musculus, UniProt P31648)
pIC50: −log10 of the molar value.
endpoint: pIC50

Illustrative cases are given below, each with its answer.
Entry Cc1ccsc1C(=COCCN1CCC[C@@H](C(=O)O)C1)c1sccc1C : reported pIC50 = ?
7.85

Give the measured pIC50 of O=C(O)C1CCCN(CCO/C=C/c2cc(F)ccc2Cc2cccc(F)c2)C1 (centres undefined) .
5.17

Endpoint output: pIC50 of O=C(O)C1CCCN(CCO/C=C/c2cc(F)ccc2Cc2ccc(F)cc2)C1 (centres undefined) . Value?
5.05

P. O=C(c1ccc(F)cc1)c1ccc(F)cc1/C=C\OCCN1CCCC(C(=O)O)C1 (centres undefined)
Q. O=C(O)C1CCCN(CCO/C=C\c2cc(F)ccc2Cc2ccccc2F)C1 (centres undefined)
Please let me know which one, P or Q , has a lower measured pIC50 value. Kindly state the label of the option you pick.
P

###

Test system: HEK293
experiment: Inhibition of mouse GAT4 expressed in HEK cells assessed as remaining [3H]-GABA uptake at 100 uM after 25 mins by liquid scintillation counting analysis relative to control
Assay type: cell-based
Catalogue of compounds with associated Activity
Output spec: scalar in %, unitless text.

Illustrative cases are given below, each with its answer.
What value of measured Activity is listed for O=C(c1ccccc1)c1ccccc1/C=C\OCCN1CCCC(C(=O)O)C1 (stereo not drawn) ?
72.4

For Cc1ccsc1C(=CCCN1CCC[C@@H](C(=O)O)C1)c1sccc1C , what is its reported Activity?
73.4

Which measured Activity value corresponds to O=C(c1ccccc1F)c1ccc(F)cc1/C=C/OCCN1CCCC(C(=O)O)C1 (stereo not drawn) ?
52.1

Can you look up the measured Activity of O=C(c1cccc(F)c1)c1ccc(F)cc1/C=C\OCCN1CCCC(C(=O)O)C1 (stereo not drawn) for me?
52.1

Fill blank: measured Activity of the compound O=C(c1ccccc1F)c1ccc(F)cc1/C=C\OCCN1CCCC(C(=O)O)C1 (stereo not drawn) is ____.
86.3

Please give the measured Activity for this compound: O=C(c1ccc(F)cc1)c1ccc(F)cc1/C=C\OCCN1CCCC(C(=O)O)C1 (stereo not drawn)
82.2

Data request, read-out Activity, for O=C(O)C1CCCN(CCO/C=C\c2cc(F)ccc2Cc2cccc(F)c2)C1 (stereo not drawn)
56

Now consider a different compound.
What measured Activity goes with O=C(c1ccc(F)cc1)c1ccc(F)cc1/C=C/OCCN1CCCC(C(=O)O)C1 (stereo not drawn) ?
94.3

###

measured target: Sodium- and chloride-dependent GABA transporter 1 (Mus musculus, UniProt P31648)
endpoint: IC50 (µM)

Field: example entries. Status: answers known.
Would you mind telling me what IC50 value was observed for O=C(c1ccccc1F)c1cc(F)ccc1/C=C\OCCN1CCCC(C(=O)O)C1 (centres undefined) ?
0.759

Recorded IC50 for O=C(c1cccc(F)c1)c1ccc(F)cc1/C=C/OCCN1CCCC(C(=O)O)C1 (centres undefined) , please?
29.5

a. O=C(O)[C@@H]1CCCN(CCC=C(c2ccccc2)c2ccccc2)C1
b. O=C(c1ccccc1)c1ccccc1/C=C/OCCN1CCCC(C(=O)O)C1 (centres undefined)
API: POST /compare with a and b ; response names the item with higher IC50. Let me know the label of the one you choose.
b

Measured values drawn from ChEMBL document CHEMBL2385039 for this set.
